Below, each of the binders is paired with its reported huCD71/Fc value.
Assayed target: T1, recombinant biotinylated CD71 extracellular domain (Sino Biologics) with an N-terminal 6His tag (human, UniProt P02786 89-760, biotinylated (sites not given))
T1 construct: extracellular domain; also called hCD71; huCD71
T1 sequence (P02786 other isoform, or with tags, fused parts or gaps): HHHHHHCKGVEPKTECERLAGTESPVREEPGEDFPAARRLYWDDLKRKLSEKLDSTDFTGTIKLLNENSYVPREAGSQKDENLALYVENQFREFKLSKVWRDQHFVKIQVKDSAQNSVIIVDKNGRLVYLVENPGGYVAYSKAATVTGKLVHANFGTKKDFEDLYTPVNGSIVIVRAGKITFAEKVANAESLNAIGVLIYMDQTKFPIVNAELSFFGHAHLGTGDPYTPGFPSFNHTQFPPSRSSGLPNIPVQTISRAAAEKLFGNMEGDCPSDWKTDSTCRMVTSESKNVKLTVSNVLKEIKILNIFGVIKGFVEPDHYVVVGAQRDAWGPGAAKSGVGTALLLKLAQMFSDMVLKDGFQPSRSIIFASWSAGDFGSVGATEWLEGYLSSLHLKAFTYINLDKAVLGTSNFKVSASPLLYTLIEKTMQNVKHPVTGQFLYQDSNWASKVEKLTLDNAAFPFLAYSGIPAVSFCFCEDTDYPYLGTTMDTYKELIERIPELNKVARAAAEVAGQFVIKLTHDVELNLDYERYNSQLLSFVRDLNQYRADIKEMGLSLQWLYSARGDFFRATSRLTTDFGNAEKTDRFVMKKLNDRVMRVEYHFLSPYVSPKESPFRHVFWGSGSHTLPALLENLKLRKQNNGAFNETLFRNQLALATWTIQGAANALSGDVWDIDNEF
Assay name: screening ELISA, ratio

These recorded examples may help you get a feel for the data.
SEQ ID NO 39 (designed binder, FN3 domain) MLPAPKNLVVSRVTEDSARLSWTAPDAAFDSFDIDYREWWTLGEAIVLTVPGSERSYDLTGLKPGTEYYVNIQGVKGGLRSYPLSAIFTT | 122
SEQ ID NO 60 (designed binder, FN3 domain) MLPAPKNLVVSRVTEDSARLSWTAPDAAFDSFTIWYAEAIGHGEAIVLTVPGSERSYDLTGLKPGTEYWVDIWGVKGGQQSKPLSAIFTT | 691
SEQ ID NO 36 (designed binder, FN3 domain) MLPAPKNLVVSRVTEDSARLSWTAPDAAFDSFTITYIEWWENGEAIALSVPGSERSYDLTGLKPGTEYQVGIAGVKGGYKSYPLWALFTT | 535

Shifting focus to the binder that follows.
huCD71/Fc lookup needed for SEQ ID NO 59 (designed binder, FN3 domain) MLPAPKNLVVSRVTEDSARLSWTAPDAAFDSFTIWYAEWEDEGEAIVLTVPGSERSYDLTGLKPGTEYRVEIYGVKGGYPSKPLSAIFTT , thanks.
608

// data source = patent US20210145976A1
